The reported measurements were obtained from patent US11945811B2.

# assayed.system: human SK3 channel (hKCa2.3) (Homo sapiens, UniProt Q9UGI6)
# procedure.text: Automated patch clamping (QPatch 16 HT whole-cell recordings)
# test.settings: HEK-293 cells stably expressing hKCa2.3; currents measured at −80 mV; normalized to N-methyl bicuculline; read-out: IC50 in the Automated patch clamping assay (SK3 channel inhibition)
pIC50: −log10 of the molar value.
experimental.readout: pIC50

# example entries with known answers
molecule: Cc1coc(=N)n1Cc1cccc2[nH]c(NC(C)(CO)c3ccc(F)c(Cl)c3)nc12 (single isomer, unassigned; (-)) [Example 13a]
experimental.readout: pIC50
recorded.result: > 6.00
--
molecule: CC(CO)(Nc1nc2c(Cn3ccoc3=N)cccc2[nH]1)c1ccc(F)c(Cl)c1 (single isomer, unassigned; (-)) [Example 8a]
experimental.readout: pIC50
recorded.result: > 6.00
--
molecule: Cc1coc(=N)n1Cc1cccc2[nH]c(NC(C)(CO)c3cccc(C(F)(F)F)c3)nc12 (stereo not shown) [Example 23]
experimental.readout: pIC50
recorded.result: > 6.00
--
molecule: CC(CO)(Nc1nc2c(Cn3ccoc3=N)cccc2[nH]1)c1ccc(F)c(Cl)c1 (single isomer, unassigned; (+)) [Example 8b]
experimental.readout: pIC50
recorded.result: > 4.52
--
molecule: Cn1nccc1NCc1cccc2[nH]c(NC(C)(CO)c3cccc(C(F)(F)F)c3)nc12 (stereo not shown)
experimental.readout: pIC50
recorded.result: > 4.52

In: Name the recorded pIC50 for CC(CO)(Nc1nc2c(Cn3ccoc3=N)cccc2[nH]1)c1cccc(Cl)c1F (single isomer, unassigned; (-)) [Example 41a] .
Out: > 6.00

In: Reported pIC50 for CN1CCN(Cc2cccc3[nH]c(NC(C)(CO)c4ccc(F)c(Cl)c4)nc23)C1=O (stereo not shown) : what is it?
Out: > 4.52

In: GET /values?readout=pIC50&item= CC(CO)(Nc1nc2c(Cn3ccoc3=N)cccc2[nH]1)c1ccc(Cl)c(Cl)c1 (single isomer, unassigned) [Example 19a]
Out: > 6.00

In: Need pIC50, item Cc1cn(Cc2cccc3[nH]c(NC(C)(CO)c4cccc(C(F)(F)F)c4)nc23)c(=N)o1 (single isomer, unassigned) [Example 24a]
Out: > 4.52

In: Which value of pIC50 has been reported for CC(CO)(Nc1nc2c(Cn3ccoc3=N)cccc2[nH]1)c1cccc(OC(F)(F)F)c1 (single isomer, unassigned) [Example 27b] in the records?
Out: > 4.52

In: Request the reported pIC50 associated with CC(CO)(Nc1nc2c(Cn3ccoc3=N)cccc2[nH]1)c1cccc(Cl)c1 (single isomer, unassigned; (+)) [Example 3b]
Out: > 4.52

In: So what does the record say about pIC50 for CC(CO)(Nc1nc2c(CNc3ccon3)cccc2[nH]1)c1cc(Cl)ccc1F (single isomer, unassigned; (+)) [Example 49a] ?
Out: > 4.52

In: What does the data say about its pIC50? Entry: Cc1cn(Cc2cccc3[nH]c(NC(C)(CO)c4cccc(OC(F)(F)F)c4)nc23)c(=N)o1 (single isomer, unassigned; (-)) [Example 30a]
Out: > 6.00
